Recorded protein stability index values for a group of variants are listed next.
B1: FAM189A2 (parent)
chain: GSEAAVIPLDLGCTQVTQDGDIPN

- Variants of: B1
- Assay Remarks: protein stability index of a GFP-peptide fusion (GPS, HEK-293T) (PSI 1-6); higher = more stable;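 also: lentivirally expressed fusions sorted by FACS into six bins by GFP to DsRed ratio, PSI derived from sequencing read proportions per bin multiplied by bin number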
- Condition: c terminus: a fixed tail appended
Observed Property: protein stability index

>>> print(df.to_string())
    change  observed_value
 0    D19E            5.34
 1     P8S            4.46
 2     S2R            5.61
 3     A5F            4.64
 4    T17L            4.88
 5    P23Y            4.52
 6     G1M            5.33
 7     G1L            5.43
 8    D10M            4.02
 9     A5V            5.08
10     G1I            4.68
11     P8F            2.34
12    Q15V            5.12
13    V16E            4.98
14     S2A            5.71
15    D19F            4.46
16     A4N            5.58
17    I22E            5.53
18    D19V            4.77
19     G1S            5.22
20    D19T            5.25
21     A4G            5.29
